This collection of values is drawn from patent US8658639B2.

# Test system: Recombinant human renin (Homo sapiens)
# Test method notes: In vitro renin inhibitory activity assay
# Assay setup: recombinant human renin 4.2 ng/mL, substrate 4 μM, 37° C., one hour, pH 7.4
pIC50: −log10 of the molar value.
Respond with label 1 for pIC50 values of 7 and above, label 0 for values below.

CC(OC(=O)C(C)C)OC(=O)N1CCCC(N(C(=O)c2cc3c(cc2C(F)(F)F)OC2(CC2)C(=O)N3CCNC(=O)C(F)F)C(C)C)C1 (stereo not drawn) : label 1
CCOC(=O)O[C@H](C)OC(=O)N1CCC[C@@H](N(C(=O)c2cc3c(cc2C)OC(C)(C)C(=O)N3CCNC(=O)CC)C(C)C)C1 : label 0

Now look at this entry.
[Q] Hi team, for CCC(=O)NCCN1C(=O)C(C)(C)Oc2cc(C)c(C(=O)N(C(C)C)[C@@H]3CCCN(C(=O)O[C@H](C)OC(=O)C(C)C)C3)cc21 , is the recorded pIC50 at or above 7?
[A] label 0

* * *

# Test system: Recombinant human renin (Homo sapiens, UniProt P00797)
# Sequence (P00797 67-406): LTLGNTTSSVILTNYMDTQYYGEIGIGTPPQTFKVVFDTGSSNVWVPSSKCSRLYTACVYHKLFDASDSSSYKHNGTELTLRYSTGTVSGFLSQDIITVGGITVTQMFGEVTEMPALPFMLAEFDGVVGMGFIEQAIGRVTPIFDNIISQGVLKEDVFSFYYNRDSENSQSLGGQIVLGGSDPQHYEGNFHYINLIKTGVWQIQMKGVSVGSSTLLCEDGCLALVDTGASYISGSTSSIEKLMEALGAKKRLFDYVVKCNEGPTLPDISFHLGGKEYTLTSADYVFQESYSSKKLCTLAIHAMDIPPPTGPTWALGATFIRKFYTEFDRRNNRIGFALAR
# Test method notes: In vitro renin inhibitory activity assay
# Assay setup: recombinant human renin 4.2 ng/mL, substrate 4 μM, 37° C., one hour, pH 7.4
Structures can show the parent of a compound that is named as a salt.
IC50 vs 70 nM: less than gives Y; not less than gives N.

Recorded results for 2 compounds are shown here.
Cc1oc(=O)oc1COC(=O)N1CCC[C@@H](N(C(=O)c2cc3c(cc2C(F)(F)F)OC2(CC2)C(=O)N3CCNC(=O)C(F)F)C(C)C)C1 : Y
CCC(=O)NCCN1C(=O)C2(CCC2)Oc2cc(C)c(C(=O)N(C(C)C)C3CCCN(C(=O)OC(OC(=O)CC)C(C)C)C3)cc21 (stereo not drawn) : N

[Q] # TODO verify IC50 < 70 nM strictly for this compound: CCC(=O)NCCN1C(=O)C(C)(COC)Oc2cc(C)c(C(=O)N(C(C)C)C3CCCN(C(=O)OC(C)OC(=O)CC)C3)cc21 (stereo not drawn)
[A] Y

[Q] Take the compound CCC(=O)NCCN1C(=O)C(C)(C)Oc2cc(C)c(C(=O)N(C(C)C)C3CCCN(C(=O)OC(C)OC(=O)C4CCOCC4)C3)cc21 (single isomer, unassigned) [Example 87] and say whether its IC50 is less than 70 nM.
[A] Y

[Q] Could you please tell me whether IC50 recorded for CCC(=O)NCCN1C(=O)C(C)(C)Oc2cc(C(F)(F)F)c(C(=O)N(C(C)C)[C@@H]3CCCN(C(=O)[C@@H](N)C(C)C)C3)cc21 [Example 22, hydrochloride] is less than 70 nM?
[A] N

[Q] API: query returns whether the compound falls strictly under 70 nM in IC50. Query: CCC(=O)NCCN1C(=O)C2(CCC2)Sc2cc(C)c(C(=O)N(C(C)C)[C@@H]3CCCN(C(=O)OCc4oc(=O)oc4C)C3)cc21
[A] Y

* * *

Listed below: pIC50 values for each entry.
# Test system: Recombinant human renin (Homo sapiens, UniProt P00797)
# Test method notes: In vitro renin inhibitory activity assay
# Assay setup: recombinant human renin 4.2 ng/mL, substrate 4 μM, 37° C., one hour, pH 7.4
The quantity pIC50 is defined as the negative base-10 logarithm of the molar concentration.

These solved cases illustrate the format of a correct answer.
CCC(=O)NCCN1C(=O)C2(CCC2)Oc2cc(C)c(C(=O)N(C(C)C)[C@@H]3CCCN(C(=O)OC(C)OC(=O)c4cccnc4)C3)cc21 (stereo partly drawn) [Example 89] : 8.72
CCC(=O)NCCN1C(=O)C2(CCC2)Oc2cc(C)c(C(=O)N(C(C)C)C3CCCN(C(=O)OC(OC(C)=O)C(C)C)C3)cc21 (stereo not drawn) [Example 35] : 8.57

Continue with the next molecule.
[Q] Using Recombinant human renin (Homo sapiens, UniProt P00797) as the test system, report measured pIC50 of CCC(=O)NCCN1C(=O)C(C)(COC)Oc2cc(C(F)(F)F)c(C(=O)N(C(C)C)C3CCCN(C(=O)OC(OC(=O)CC)C(C)C)C3)cc21 (stereo not drawn) [Example 75] .
[A] 9.13
